Documented Span across a set of binders
# assayed_system: T1, human G-protein-coupled receptor family C group 5 member D (GPRC5D) (human, UniProt Q9NZD1 1-345)
# T1 construct: whole, on cells; also called human GPRC5D protein
# T1 sequence (Q9NZD1 whole entry): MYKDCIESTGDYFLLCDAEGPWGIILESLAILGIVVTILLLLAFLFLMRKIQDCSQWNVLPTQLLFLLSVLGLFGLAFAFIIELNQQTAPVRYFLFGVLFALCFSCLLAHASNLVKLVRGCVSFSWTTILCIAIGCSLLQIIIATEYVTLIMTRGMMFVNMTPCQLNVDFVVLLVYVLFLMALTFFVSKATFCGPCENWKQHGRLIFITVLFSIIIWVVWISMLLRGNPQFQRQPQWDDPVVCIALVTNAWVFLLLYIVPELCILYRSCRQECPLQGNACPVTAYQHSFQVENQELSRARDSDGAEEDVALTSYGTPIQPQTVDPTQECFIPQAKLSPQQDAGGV
# test_name: FACS, CHO-K1/GPRC5D
Keep it simple and answer with nothing but the number.

Inquiry: Entry 6-H4L1 (antibody, V domains shown, humanized 6G10D9, VH v4 x VL v1) VH: QVQLVQSGAEVAKPGASVKMSCKASGYTFTTYTMHWVKQAPGQGLEWLGYINPSSGYTNYNQKFKDRVTLTADTSTSTVYMELSSLRSEDTAVYYCASLRSRGYFDYWGQGTLLTVSS VL: DIQLTQSPSFLSASVGDRVTITCKASQNVGTAVVWYQQKPGKAPKLLIYSASNRYTGVPSRFSGSGSGTEFTLTISSLQPEDFATYYCQQYSSYPYTFGQGTKLEIK has what Span?
Reply text: 50200

Query binder follows.
Inquiry: What value of Span has been recorded for this entry: 6-H3L1 (antibody, V domains shown, humanized 6G10D9, VH v3 x VL v1) VH: QVQLVQSGAEVAKPGASVKVSCKASGYTFTTYTMHWVKQAPGQGLEWLGYINPSSGYTNYNQKFKDRVTMTADTSTSTVYMELSSLRSEDTAVYYCASLRSRGYFDYWGQGTLVTVSS VL: DIQLTQSPSFLSASVGDRVTITCKASQNVGTAVVWYQQKPGKAPKLLIYSASNRYTGVPSRFSGSGSGTEFTLTISSLQPEDFATYYCQQYSSYPYTFGQGTKLEIK
Reply text: 74500
